# assay system: the molecule itself
# assay info: SEC-MALS
quantity measured: stoichiometry N
Response field accepts a number only; no unit should be typed.

protein	quantity measured	reported result
Bartonella henselae NrnC D25A (enzyme) MTEIRVHQGDLPNLDNYRIDAVAVATETLGLQPHRDRLCVVQLSSGDGTADVIQIAKGQKSAPNLVRLLSDRDITKIFHFGRFDLAILAHTFGVMPDVVFCTKIASKLTRTYTDRHGLKEICGELLNVNISKQQQSSDWAAETLSRAQIEYAASDVLYLHRLKDIFEERLKREERESVAKACFQFLPMRANLDLLGWSEIDIFAHS	stoichiometry N	8

Now look at this entry.
Enquiry: Specify reported stoichiometry N for the protein shown: Bartonella henselae NrnC L31A (enzyme, L-wedge mutant) MTEIRVHQGDLPNLDNYRIDAVAVDTETLGAQPHRDRLCVVQLSSGDGTADVIQIAKGQKSAPNLVRLLSDRDITKIFHFGRFDLAILAHTFGVMPDVVFCTKIASKLTRTYTDRHGLKEICGELLNVNISKQQQSSDWAAETLSRAQIEYAASDVLYLHRLKDIFEERLKREERESVAKACFQFLPMRANLDLLGWSEIDIFAHS
Return: 8
